- system: AChE in SH-SY5Y cells (Homo sapiens, UniProt P22303)
- Sequence (P22303 32-614): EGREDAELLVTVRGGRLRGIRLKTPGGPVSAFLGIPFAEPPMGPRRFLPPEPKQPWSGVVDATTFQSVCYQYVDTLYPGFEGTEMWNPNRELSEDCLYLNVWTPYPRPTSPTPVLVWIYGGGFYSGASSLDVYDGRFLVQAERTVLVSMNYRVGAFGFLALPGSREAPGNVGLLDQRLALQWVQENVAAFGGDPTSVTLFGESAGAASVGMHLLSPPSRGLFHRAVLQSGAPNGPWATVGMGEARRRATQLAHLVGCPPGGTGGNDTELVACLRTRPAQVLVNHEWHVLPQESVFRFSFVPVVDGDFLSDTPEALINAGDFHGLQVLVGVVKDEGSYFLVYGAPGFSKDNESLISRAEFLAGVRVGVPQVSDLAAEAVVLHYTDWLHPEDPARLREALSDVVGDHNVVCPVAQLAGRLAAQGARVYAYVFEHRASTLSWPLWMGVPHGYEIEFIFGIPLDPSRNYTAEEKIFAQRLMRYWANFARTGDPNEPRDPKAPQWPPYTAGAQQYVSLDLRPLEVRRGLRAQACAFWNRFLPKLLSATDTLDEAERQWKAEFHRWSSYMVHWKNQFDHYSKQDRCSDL
- experiment_summary: cell-based
Counter-ions that a name gives are not always drawn.
attribute_measured: CC-v2 (curve classes)

Q. Enter reported CC-v2 (curve classes) observed with AChE in SH-SY5Y cells (Homo sapiens, UniProt P22303) for CNC(=O)O/N=C/C(C)(C)S(C)(=O)=O [Aldoxycarb]
A. -2.1

Q. Enter reported CC-v2 (curve classes) observed with AChE in SH-SY5Y cells (Homo sapiens, UniProt P22303) for CCOP(=S)(OCC)SCn1c(=O)oc2cc(Cl)ccc21 [Phosalone]
A. -2.2

Q. Enter reported CC-v2 (curve classes) observed with AChE in SH-SY5Y cells (Homo sapiens, UniProt P22303) for CCOC(=O)CC(SP(=O)(OC)OC)C(=O)OCC (stereo not drawn) [Malaoxon]
A. -1.1

Q. Enter reported CC-v2 (curve classes) observed with AChE in SH-SY5Y cells (Homo sapiens, UniProt P22303) for Nc1c(NC/C=C\COc2cc(CN3CCCCC3)ccn2)c(=O)c1=O [Pibutidine]
A. -2.1

Q. Enter reported CC-v2 (curve classes) observed with AChE in SH-SY5Y cells (Homo sapiens, UniProt P22303) for O=C1c2c(O)ccc(Nc3ccc(CCO)cc3)c2C(=O)c2c([N+](=O)[O-])ccc(O)c21 [C.I. Disperse Blue 27]
A. -1.1

Q. Enter reported CC-v2 (curve classes) observed with AChE in SH-SY5Y cells (Homo sapiens, UniProt P22303) for CCOP(=S)(OCC)Oc1cc(-c2ccccc2)on1 [Isoxathion]
A. -2.1

Q. Enter reported CC-v2 (curve classes) observed with AChE in SH-SY5Y cells (Homo sapiens, UniProt P22303) for CCOP(=S)(OCC)OP(=S)(OCC)OCC [Sulfotepp]
A. -1.1

Q. Enter reported CC-v2 (curve classes) observed with AChE in SH-SY5Y cells (Homo sapiens, UniProt P22303) for Nc1c2c(nc3ccccc13)CCCC2O.O=C(O)/C=C\C(=O)O (stereo not drawn) [Hydroxytacrine maleate, reference compound]
A. -1.1

Q. Enter reported CC-v2 (curve classes) observed with AChE in SH-SY5Y cells (Homo sapiens, UniProt P22303) for Cc1ccc(S(=O)(=O)Oc2ccc(N=Nc3ccc(-c4ccc(N=Nc5c(O)ccc6cc(S(=O)(=O)[O-])cc(S(=O)(=O)[O-])c56)c(C)c4)cc3C)cc2)cc1.[Na+].[Na+] [C.I. Acid Red 114]
A. 4

Q. Enter reported CC-v2 (curve classes) observed with AChE in SH-SY5Y cells (Homo sapiens, UniProt P22303) for CCN(CC)C(=O)[C@@H]1C=C2c3cccc4[nH]cc(c34)C[C@H]2N(C)C1 [Lysergide]
A. -2.1

Q. Enter reported CC-v2 (curve classes) observed with AChE in SH-SY5Y cells (Homo sapiens, UniProt P22303) for CN1CCCC(n2nc(Cc3ccc(Cl)cc3)c3ccccc3c2=O)CC1 (stereo not drawn) [Azelastine hydrochloride]
A. -2.1

Q. Enter reported CC-v2 (curve classes) observed with AChE in SH-SY5Y cells (Homo sapiens, UniProt P22303) for N#Cc1sc2c(=O)c3ccccc3c(=O)c=2sc1C#N [Dithianon]
A. -2.1

Q. Enter reported CC-v2 (curve classes) observed with AChE in SH-SY5Y cells (Homo sapiens, UniProt P22303) for CNC(=O)ON=C(CSC)C(C)(C)C [Thiofanox]
A. -1.1

Q. Enter reported CC-v2 (curve classes) observed with AChE in SH-SY5Y cells (Homo sapiens, UniProt P22303) for CCOP(=O)(OCC)OC(=CCl)c1ccc(Cl)cc1Cl [Chlorfenvinphos]
A. -1.1

Q. Enter reported CC-v2 (curve classes) observed with AChE in SH-SY5Y cells (Homo sapiens, UniProt P22303) for CS/C(C)=N\OC(=O)N(C)SN(C)C(=O)O/N=C(\C)SC [Thiodicarb]
A. -1.1

Q. Enter reported CC-v2 (curve classes) observed with AChE in SH-SY5Y cells (Homo sapiens, UniProt P22303) for CCOP(=S)(Oc1cnc(C(C)(C)C)nc1)OC(C)C (stereo not drawn) [Tebupirimfos]
A. -2.1

Q. Enter reported CC-v2 (curve classes) observed with AChE in SH-SY5Y cells (Homo sapiens, UniProt P22303) for CCN1CCC2(CC1)COc1cc3c(cc12)N(C(=O)c1ccc(-c2ccc(-c4nnc(C)o4)cc2C)cc1)CC3.Cl [SB236057A]
A. -2.1

Q. Enter reported CC-v2 (curve classes) observed with AChE in SH-SY5Y cells (Homo sapiens, UniProt P22303) for CCOP(=O)(OCC)Oc1ccc([N+](=O)[O-])cc1 [Paraoxon]
A. -1.1
